Reported growth values are given for each entry in this list.
System: T-47D breast
assay.procedure: NCI-60 one-dose screen, 48 h (100 = growth as untreated, 0 = no growth, -100 = all killed)
conditions: 10 µM unless noted
This is part of a sample that, as a whole, favours compounds with a hit. Of some 83,000 tested, about 20% had one in any assay.
Report the value in % with no unit label.

Short answer for O=C(NNc1nc2cc(F)ccc2n2c(CN3CCC(O)C3)ccc12)c1cnccn1 (stereo not given) : growth was 13

Input COc1ccc(/C=C/C(=O)c2cc(S(N)(=O)=O)c(OC)cc2OC)cc1 . Output growth: 50.3

* * *

The entries below are paired with their reported growth.
Tested on: OVCAR-5 ovarian
assay.procedure: NCI-60 one-dose screen, 48 h (100 = growth as untreated, 0 = no growth, -100 = all killed)
conditions: 10 µM unless noted
About 83,000 compounds went through this panel and 20% of them were active in at least one assay; those are over-represented in the sample as a whole.
Numbers only; they are read as %.

Recorded results for 3 compounds are shown here.
cpd.smiles	unit.tag	growth
CCN1CCN(Cc2ccc(C(=O)Nc3ccc(C)c(Oc4ccc(-c5[nH]nc6ncnc(N)c56)cc4)c3)cc2C(F)(F)F)CC1	%	94.9
COc1cc(Cn2cc3c(c2)-c2onc(CN4CCOCC4)c2CC3)cc(OC)c1OC	%	95
CS(=O)(=O)Nc1cc(-c2ccc3ncc(C#N)c(NCc4cccc(F)c4)c3c2)cnc1Cl	%	16.4

Short answer for Cc1ccc(NC(=O)CNc2cc(C(N)=O)cc(F)c2C)c(Cl)c1 : growth was 87.9

Summary for this compound, CC(=O)Nc1cccc(Nc2nc(N[C@H](C)c3ccccc3)c3ccccc3n2)c1 : growth is 70.6

The value of growth measured for the compound O=C1[C@H]2Cc3c([nH]c4ccccc34)[C@@H](c3ccc(Cl)cc3)N2C(=O)CN1C1CCN(Cc2ccccc2)CC1 turned out to be 74.8

The compound listed as COc1ccc(/C=C(/C)c2ccc3ccc(OC)cc3[o+]2)c(O)c1 shows growth equal to 98.5

// growth value for C=CCn1c(SCC(=O)Nc2ccc(C(=O)/C=C/c3ccc(Br)cc3)cc2)nnc1-c1c[nH]c2ccccc12 : 99.4

The reported growth of the compound CN1CCN(Cc2ccc(NC(=O)c3cncc(C#Cc4cnc5ccc(NCCCO)nn45)c3)cc2C(F)(F)F)CC1 was 4.78

* * *

Test system: A498 renal
assay.procedure: NCI-60 one-dose screen, 48 h
conditions: 10 µM unless noted
Protocol: Growth inhibition of the A498 human tumor cell line is measured as a screen for anti-cancer activity. Cells are grown in 96 well plates and exposed to the test compound for 48 hours. Compounds are tested at a single concentration, which is 10^-5 M for most compounds. The reported endpoint is percent growth (GI% or GIPRCNT), where numbers from 0 - 100% represent growth inhibition, and numbers from -100% - 0 represent cell death. For example, a value of 40 represents 60% growth inhibition. […]
About 83,000 compounds went through this panel and 20% of them were active in at least one assay; those are over-represented in the sample as a whole. The source made the active and inactive calls. The calls were made as follows: active = growth percent below 10; inactive = the rest.
Your answer must be one of the following: active, inactive

Solved cases (9 shown):
compound	target.entity	label.value
CC(=O)N1C(=S)NC(=O)C1CC(C)C (stereo not given)	A498 renal	inactive
CCc1cccc(NC(=O)CNc2cc(S(=O)(=O)N(C)C)cc(C)c2C)c1	A498 renal	inactive
CC(=O)c1ccc(Nc2nc(SCC(C)C)nc(-c3ccc(F)cc3)c2C#N)cc1	A498 renal	inactive
COc1ccc(NC2=C(Cl)C(=O)c3nc(C)ccc3C2=O)cc1OC	A498 renal	inactive
Cc1c(Cl)cccc1S(=O)(=O)Nc1ccc2c(c1)C(=O)N(C1CCC(=O)NC1=O)C2=O (stereo not given)	A498 renal	inactive
Cc1ccc(-n2cc(/C=N/NC(=O)c3nc(N)n[nH]3)c(-c3ccc(S(C)(=O)=O)cc3)n2)cc1	A498 renal	inactive
CN1CCN(Cc2ccc(NC(=O)c3cncc(C#Cc4cnc5ccc(NCCCO)nn45)c3)cc2C(F)(F)F)CC1	A498 renal	active
C=CCn1c(SCC(=O)Nc2ccc(C(=O)/C=C/c3ccc(Br)cc3)cc2)nnc1-c1c[nH]c2ccccc12	A498 renal	inactive
Clc1nc2ccccc2nc1-c1nnc(C2CCCCC2)o1	A498 renal	inactive

Continue with the compound presented below.
**Query** Recorded test call requested for CCCCCCCn1cc2c(NCCc3ccccc3)ncnc2n1
**Result** inactive

* * *

System: EKVX NSCLC
assay.procedure: NCI-60 one-dose screen, 48 h (100 = growth as untreated, 0 = no growth, -100 = all killed)
conditions: 10 µM unless noted
Compounds without any hit were thinned out: in the full panel of roughly 83,000, 20% have a hit.
Here, each record is paired with measured growth data.
Give a bare numeral; the unit % is implied.

Illustrative cases are given below, each with its answer.
compound	growth, %
O=S(=O)(NCCNc1nccc(-n2cnc3ccccc32)n1)c1ccc(C(F)(F)F)cc1	34.7
O=C1Nc2ccccc2/C1=C/c1ccc(COCC2CO2)n1-c1ccc(O)cc1 (centres undefined)	102
O=C(CCC(=O)N1CCOCC1)OCCCCCCSc1ccc([N+](=O)[O-])c2nonc12	1.52
Cc1cc(C)n(C(=O)c2sc(=S)n(-c3ccccc3)c2N=Nc2c(N)n[nH]c2N)n1	102
CNC(=O)c1cc(-c2ccc(NC(=S)Nc3cc(C(F)(F)F)cc(C(F)(F)F)c3)cc2)nc2cccnc12	70

Per the records, this compound ( Oc1cccc2ccc(-c3nnc(SCc4ccc(O)c5ncccc45)o3)nc12 ) has growth equal to 17.5

Item: CN(C)CCCOc1ccc2c(c1)CN(C(=O)c1cc(C(=O)N3Cc4cccc(F)c4C3)ccc1O)C2 | growth: 103

get_value(item= Cn1ccnc1C(=O)/C=C/c1ccc(CNC(=O)c2ccc(F)cc2)cc1 , readout=growth) returns 53.5

get_value(item= CCO/C=N/C1=C(C#N)C(c2ccc(OC)cc2)c2sc3c(C)cccc3c2O1 (centres undefined) , readout=growth) returns 39.9

* * *

Tested on: A498 renal
assay.procedure: NCI-60 one-dose screen, 48 h
conditions: 10 µM unless noted
This is part of a sample that, as a whole, favours compounds with a hit. Of some 83,000 tested, about 20% had one in any assay. The source made the active and inactive calls. Rule for the calls: active = growth percent below 10; inactive = the rest.
Lab note: assign the record to one of y for active, n for inactive

# count of solved cases: 4
molecule	target.entity	label.value
C=CCn1c(SCC(=O)Nc2ccc(C(=O)/C=C/c3ccc(C)cc3)cc2)nnc1-c1c[nH]c2ccccc12	A498 renal	n
Cc1nn(-c2ccccc2)c2ncnc(N/N=C/c3ccccc3)c12	A498 renal	n
Clc1cccc(/C=N/Nc2nc(N/N=C/c3cccc(Cl)c3Cl)nc(N3CCCCC3)n2)c1Cl	A498 renal	n
CC(Nc1c(C#N)cnc2ccc(-c3cnc(N)nc3)cc12)c1ccccc1 (stereo not given)	A498 renal	y

**Query** GET /call?item= CCCCCc1ccc(S(=O)(=O)Nc2cccc(-c3csc(NC(=O)CN4CCN(C)CC4)n3)c2)cc1 returns the recorded outcome of this test.
**Result** n

* * *

Tested on: UO-31 renal
assay.procedure: NCI-60 one-dose screen, 48 h (100 = growth as untreated, 0 = no growth, -100 = all killed)
conditions: 10 µM unless noted
About 83,000 compounds went through this panel and 20% of them were active in at least one assay; those are over-represented in the sample as a whole.
quantity.kind: growth (%)
Field format: number, assumed %, no unit text.

cpd.smiles	growth / %
CN(C)CCCOc1ccc2c(c1)CN(C(=O)c1cc(C(=O)N3Cc4cccc(F)c4C3)ccc1O)C2	95.3
Cc1ccc(CSc2nc(-c3ccc(Cl)cc3)c(C#N)c(N3CCOCC3)n2)cc1	86.1
Nc1nc(Nc2ccccc2SSc2ccccc2Nc2nc(N)nc(-c3ccc4ccccc4c3)n2)nc(-c2ccc3ccccc3c2)n1	-19.1

Known value: UO-31 renal growth of the compound Cc1ccc(-n2cc(/C=N/NC(=O)c3nc(N)n[nH]3)c(-c3ccc(S(C)(=O)=O)cc3)n2)cc1 equals 92.6

Record for N#Cc1cnc2ccc(-c3cnc4[nH]ncc4c3)cc2c1N1CCc2cc(F)c(Cl)cc21 under target or system UO-31 renal: growth reported as -8.85

Measured growth (UO-31 renal), entry Cn1cc(-c2nc(N)nnc2-c2c[nH]c3ccc(Br)cc23)c2cc(Br)ccc21 : 54.1

C#Cc1ccc(C(=O)NCc2ccc(/C=C/C(=O)c3nccn3C)cc2)cc1 tested on UO-31 renal gave growth: 29.3

Item: COc1ccccc1-n1cc(C#N)c(N)c1C(=O)c1ccc(C)cc1 | System: UO-31 renal | growth: 90

Tested system UO-31 renal; growth recorded for c1n[nH]cc1-c1nc2ccc3[nH]ncc3c2c2c1CCCC2 was 11.9

* * *

Tested on: NCI-H322M lung
assay.procedure: NCI-60 one-dose screen, 48 h (100 = growth as untreated, 0 = no growth, -100 = all killed)
conditions: 10 µM unless noted
About 83,000 compounds went through this panel and 20% of them were active in at least one assay; those are over-represented in the sample as a whole.
quantity.kind: growth (%)
Unit % implied. Number only.

Some compounds with known growth results, for comparison:
cpd.smiles	growth [%]
N=c1c2cc(-c3ccccc3)oc2ncn1/N=C/c1ccc(Cl)cc1	90.9
COc1ccc2[nH]cc(/C=N/Nc3nc4ccccc4s3)c2c1	79.2
O=C(CN1CCN(c2cc(=O)n(-c3ccccc3)c3ccccc23)CC1)Nc1ccc(F)cc1	83.6

// below: growth requested for another compound
Sure, the documented growth for C/C(=N\O)[C@H]1C[C@]23CC[C@]4(C)[C@H](CC[C@@H]5[C@@]6(C)CC/C(=N/O)C(C)(C)[C@@H]6CC[C@]54C)[C@H]2[C@H](C)C1(C)OC3 is 114
